target: human TRPV4 (hTRPV4/CHO cells) (Homo sapiens); construct: expressed in transfected cells; host or cells: CHO-K1; experiment: Test Example 1: TRPV4 inhibitory activity (IC50 value), 4α-PDD stimulation, Fluo4 calcium fluorescence (FLIPR TETRA); format: cell-based; details: Test Example 1, 4α-PDD stimulation, read-out: Test 1 IC50
READOUT KIND: IC50

COCC1(C(=O)Nc2nc(-c3sc(C)nc3C)cs2)CN(c2ccc(C(F)(F)F)cc2)C1 (racemic) [Compound I-531]	< 0.1 µM
CCNCc1nc(C)sc1-c1csc(NC(=O)Cc2c(F)cccc2F)n1 [Compound I-198]	0.1 to 1 µM
Cc1nc(C)c(-c2csc(NC(=O)[C@@H]3C[C@@H](c4ccccc4)CN3C=[N+](C)C)n2)s1 [Compound I-294]	1 to 8 µM
Cc1nc(CO)c(-c2csc(NC(=O)Cc3ccc(S(=O)(=O)C(F)(F)F)cc3)n2)s1 [Compound I-456]	< 0.1 µM
CCCCOC(CNc1nc(-c2sc(C)nc2C)cs1)c1ccc(Cl)cc1 (racemic) [II-50]	0.1 to 1 µM

Returns the measured IC50 for the input compound. Input: O=C(Cc1ccc(S(=O)(=O)C(F)(F)F)cc1)Nc1nc(-c2sc(CO)nc2CCCN2CCOCC2)cs1 [Compound I-377]
< 0.1 µM

Could you do the same for Cc1nc(C(O)CC(=O)O)sc1-c1csc(NC(=O)Cc2c(F)cccc2F)n1 (stereo not shown) [Compound I-135] , please?
1 to 8 µM

Could you do the same for Cc1nc(C)c(-c2csc(NC(=O)[C@H]3C[C@H](N(C)Cc4ccc(C(F)(F)F)cc4)C3)n2)s1 [Compound I-368] , please?
< 0.1 µM

Could you do the same for Cc1nc(CNS(C)(=O)=O)sc1-c1csc(NC(=O)Cc2ccc(S(=O)(=O)C(F)(F)F)cc2)n1 [Compound I-399] , please?
1 to 8 µM

---

Property: pKi; scope: individual molecules
target: human TRPV4 (hTRPV4/CHO cells) (Homo sapiens, UniProt Q9HBA0); construct: expressed in transfected cells; host or cells: CHO-K1; assay: Test Example 4: TRPV4 inhibitory activity (Ki value), 4α-PDD stimulation, Fluo-3 calcium fluorescence (FDSS 3000); assay type: cell-based; conditions: Test Example 4, 4α-PDD stimulation, read-out: Test 4 Ki
Sequence (Q9HBA0 whole entry): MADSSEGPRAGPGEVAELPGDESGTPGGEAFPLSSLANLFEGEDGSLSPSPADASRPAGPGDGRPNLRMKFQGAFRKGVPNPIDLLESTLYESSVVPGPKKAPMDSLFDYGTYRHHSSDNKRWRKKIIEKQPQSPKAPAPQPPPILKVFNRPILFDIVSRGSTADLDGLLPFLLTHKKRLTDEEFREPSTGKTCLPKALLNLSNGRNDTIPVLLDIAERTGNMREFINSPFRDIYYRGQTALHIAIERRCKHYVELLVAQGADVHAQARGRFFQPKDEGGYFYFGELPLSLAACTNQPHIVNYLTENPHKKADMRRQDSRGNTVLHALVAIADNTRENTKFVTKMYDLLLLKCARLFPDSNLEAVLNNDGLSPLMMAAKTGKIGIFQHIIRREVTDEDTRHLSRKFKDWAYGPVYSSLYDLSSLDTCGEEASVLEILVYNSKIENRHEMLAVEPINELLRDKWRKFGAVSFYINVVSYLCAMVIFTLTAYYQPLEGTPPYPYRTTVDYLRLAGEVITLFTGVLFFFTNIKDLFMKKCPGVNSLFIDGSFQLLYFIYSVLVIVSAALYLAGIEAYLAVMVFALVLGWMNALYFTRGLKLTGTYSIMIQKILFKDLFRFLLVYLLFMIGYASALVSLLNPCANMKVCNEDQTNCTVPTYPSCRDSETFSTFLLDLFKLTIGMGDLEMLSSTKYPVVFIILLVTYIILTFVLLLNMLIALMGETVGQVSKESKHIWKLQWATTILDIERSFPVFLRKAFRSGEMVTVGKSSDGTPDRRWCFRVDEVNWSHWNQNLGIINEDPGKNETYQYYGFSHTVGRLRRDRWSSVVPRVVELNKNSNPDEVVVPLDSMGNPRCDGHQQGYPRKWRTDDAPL
pKi: −log10 of the molar value.

Cc1nc(C)c(-c2csc(NC(=O)C3CCC(NCC(F)(F)F)C3)n2)s1 (racemic)	6.00 to 7.00
Cc1nc(C)c(-c2csc(NC(=O)C3(C)CC3)n2)s1	6.00 to 7.00
Cc1nc(C)c(-c2csc(NC(=O)CC#N)n2)s1	6.00 to 7.00

API: value(readout=pKi, system=human TRPV4 (hTRPV4/CHO cells) (Homo sapiens, UniProt Q9HBA0)) for record Cc1ncc(-c2csc(NC(=O)Cc3ccc(Br)cc3)n2)s1
> 7.00

Could you do the same for Cc1nc(C)c(-c2csc(NC(=O)Cc3ccc(Br)cc3)n2)o1 , please?
6.00 to 7.00

Could you do the same for Cc1nc(C)c(-c2csc(NC(=O)Cc3c[nH]c4ccccc34)n2)s1 , please?
6.00 to 7.00

Could you do the same for Cc1nc(C)c(-c2csc(Nc3ccc(N(C)C)cc3)n2)s1 , please?
6.00 to 7.00

Could you do the same for Cc1nc(C)c(-c2csc(NC(=O)C3CCC(F)(F)C3)n2)s1 (stereo not drawn) , please?
> 7.00

Could you do the same for Cc1nc(C)c(-c2csc(NC(=O)CCS(=O)(=O)c3ccccc3)n2)s1 , please?
6.00 to 7.00

Could you do the same for Cc1nc(C)c(-c2csc(NC(=O)C3CCCC3)n2)s1 , please?
> 7.00

Could you do the same for Cc1nc(C)c(-c2csc(NC(=O)N(C)c3ccc(Br)cc3)n2)s1 , please?
6.00 to 7.00

Could you do the same for Cc1nc(C)c(-c2csc(NC(=O)C3CCC(=O)C3)n2)s1 (racemic) , please?
5.52 to 6.00

Could you do the same for Cc1nc(C)c(-c2csc(NC(=O)C3CC3(F)F)n2)s1 (stereo not drawn) , please?
> 7.00

Could you do the same for Cc1nc(C)c(-c2csc(NC(=O)c3ccc(Cl)cc3)n2)s1 , please?
6.00 to 7.00

Could you do the same for Cc1nc(C)c(-c2csc(NC(=O)Cc3c(F)cccc3F)n2)o1 , please?
> 7.00

Could you do the same for Cc1nc(C)c(-c2csc(NC(=O)Cc3ccc(S(C)(=O)=O)cc3)n2)s1 , please?
6.00 to 7.00

Could you do the same for Cc1nc(C)c(-c2csc(NC(=O)C3Cc4ccccc4C3)n2)s1 , please?
> 7.00

Could you do the same for COC(C(=O)Nc1nc(-c2sc(C)nc2C)cs1)c1ccccc1 (stereo not drawn) , please?
6.00 to 7.00

---

Property: IC50; scope: individual compounds
biological target: human TRPV4 (hTRPV4/CHO cells) (Homo sapiens); construct: expressed in transfected cells; host or cells: CHO-K1; assay: Test Example 1: TRPV4 inhibitory activity (IC50 value), 4α-PDD stimulation, Fluo4 calcium fluorescence (FLIPR TETRA); assay type: cell-based; details: Test Example 1, 4α-PDD stimulation, read-out: Test 1 IC50

Answered cases to consult:
Cc1nc(C)c(-c2csc(NC(=O)Cn3cc(Cn4cccc4)nn3)n2)s1	100 to 1000 nM
Cc1nc(C)c(-c2csc(NC(=O)C3CC3(F)F)n2)s1 (centres unmarked) [Compound I-27]	100 to 1000 nM
Cc1nc(CO)sc1-c1csc(NC(=O)C2CN(S(=O)(=O)C(F)(F)F)C2)n1	100 to 1000 nM
NC(=O)NCc1nc(CO)sc1-c1csc(NC(=O)Cc2ccc(S(=O)(=O)C(F)(F)F)cc2)n1	100 to 1000 nM
C=C(C)c1nc(C)sc1-c1csc(NC(=O)Cc2c(F)cccc2F)n1	100 to 1000 nM

Returns the measured IC50 for the input compound. Input: Cc1nc(C)c(-c2csc(NC(=O)C3CN(c4ccc(C(F)(F)F)cc4)C3)n2)s1
< 100 nM

Could you do the same for Cc1nc(C)c(-c2csc(NC(=O)Cc3cc(OCCO)cc(C(=O)N[C@H](c4ccccc4)C(F)(F)F)c3)n2)s1 , please?
100 to 1000 nM

Could you do the same for NC(=O)c1nc(CO)c(-c2csc(NC(=O)Cc3ccc(S(=O)(=O)C(F)(F)F)cc3)n2)s1 , please?
1000 to 8000 nM

---

target: human TRPV4 (hTRPV4/CHO cells) (Homo sapiens); construct: expressed in transfected cells; host or cells: CHO-K1; assay: Test Example 1: TRPV4 inhibitory activity (IC50 value), 4α-PDD stimulation, Fluo4 calcium fluorescence (FLIPR TETRA); format: cell-based; settings: Test Example 1, 4α-PDD stimulation, read-out: Test 1 IC50
Property: IC50; scope: individual compounds

Cc1nc(C)c(-c2csc(NC(=O)Cn3cc(-c4cccc(S(C)(=O)=O)c4)cn3)n2)s1	< 0.1 µM
Cc1nc(C)c(-c2csc(NC(=O)[C@@H]3C[C@@H](c4ccccc4)CN3S(=O)(=O)C(C)C)n2)s1	< 0.1 µM
COC(=O)N1C[C@H](c2ccccc2)C[C@H]1C(=O)Nc1nc(-c2sc(C)nc2C)cs1	< 0.1 µM
Cc1nc(C)c(-c2csc(N(Cc3ccc(C(F)(F)F)cc3)C(=O)C3CN(O)C3)n2)s1	1 to 8 µM
COc1cc(CC(=O)Nc2nc(-c3sc(C)nc3C)cs2)cc(C(=O)NC(C(C)C)C(F)(F)F)c1 (racemic)	< 0.1 µM
Cc1nc(C)c(-c2nc(NC(=O)Cc3c(F)cccc3F)sc2C(=O)NCc2ccccc2)s1	1 to 8 µM

// switching to the query compound
Returns the measured IC50 for the input compound. Input: Cc1nc(CO)sc1-c1csc(NC(=O)C2CC(N3CCC(F)(F)C3)C2)n1 (stereo not shown) [Compound I-362]
1 to 8 µM

---

Property: IC50; scope: individual compounds
biological target: human TRPV4 (hTRPV4/CHO cells) (Homo sapiens, UniProt Q9HBA0); construct: expressed in transfected cells; host or cells: CHO-K1; test: Test Example 1: TRPV4 inhibitory activity (IC50 value), 4α-PDD stimulation, Fluo4 calcium fluorescence (FLIPR TETRA); format: cell-based; settings: Test Example 1, 4α-PDD stimulation, read-out: Test 1 IC50

Answered cases to consult:
Cc1nc(C)c(-c2nc(NC(=O)Cc3c(F)cccc3F)sc2-c2cnn(C)c2)s1	1000 to 8000 nM
Cc1nc(C)c(-c2csc(NC(=O)Cn3cc(-c4ccccn4)nn3)n2)s1	1000 to 8000 nM
Cc1nc(C)c(-c2csc(NC(Cc3ccc(Cl)cc3)C(=O)Nc3ccccc3)n2)s1 (racemic)	1000 to 8000 nM
Cc1nc(C)c(-c2csc(NC(=O)[C@@H]3C[C@H](Oc4ccc(Cl)cc4)CN3C(=O)OC(C)(C)C)n2)s1	< 100 nM
Cc1nc(C)c(-c2nc(NC(=O)Cc3c(F)cccc3F)sc2/C=C\c2ccccc2)s1	1000 to 8000 nM
COc1ccc(N(C)S(=O)(=O)c2ccc(CC(=O)Nc3nc(-c4sc(C)nc4C)cs3)cc2)cc1	< 100 nM

Returns the measured IC50 for the input compound. Input: Cc1nc(C)c(-c2csc(NC(=O)C(C)c3ccc(Cl)cc3)n2)s1 (centres unmarked)
< 100 nM

Could you do the same for Cc1nc(C)c(-c2csc(NC(=O)C3CC(c4ccccc4)=NO3)n2)s1 (centres unmarked) , please?
100 to 1000 nM
